- Test system: UACC-257
- test_summary: Growth inhibition of human UACC257 cells incubated for 48 hrs by sulforhodamine B assay
- Assay type: functional
- condition_summary: UACC-257, 48 h
Binary call on TGI: condition met from 6 µM upward, condition not met beneath that.

{"compound": "C=C1CC[C@@H]2[C@](C)(COC(C)=O)[C@H](OC(C)=O)CC[C@@]2(C)[C@H]1CC(Nc1ccc(S(=O)(=O)Nc2nccs2)cc1)C1=CCOC1=O (stereo not given in full)", "class_name": "condition not met"}
{"compound": "C=C1CC[C@@H]2[C@](C)(COC(C)=O)[C@H](OC(C)=O)CC[C@@]2(C)[C@H]1CC(Nc1ccc(S(=O)(=O)Nc2nccc(C)n2)cc1)C1=CCOC1=O (stereo not given in full)", "class_name": "condition met"}
{"compound": "C=C1CC[C@@H]2[C@](C)(COC(C)=O)[C@H](OC(C)=O)CC[C@@]2(C)[C@H]1CC(Nc1ccc(S(=O)(=O)Nc2cc(C)on2)cc1)C1=CCOC1=O (stereo not given in full)", "class_name": "condition met"}
{"compound": "C=C1CC[C@@H]2[C@](C)(COC(C)=O)[C@H](OC(C)=O)CC[C@@]2(C)[C@H]1CC(Nc1ccc(S(=O)(=O)Nc2ccc(Cl)nn2)cc1)C1=CCOC1=O (stereo not given in full)", "class_name": "condition not met"}

###

- Tested on: TK-10
- test_summary: Growth inhibition of human TK10 cells incubated for 48 hrs by sulforhodamine B assay
- Assay type: functional
- condition_summary: TK-10, 48 h
The following molecules are listed with their measured GI50 values.
readout_label: GI50 (µM)

{"molecule": "C=C1CC[C@@H]2[C@](C)(COC(C)=O)[C@H](OC(C)=O)CC[C@@]2(C)[C@H]1CC(Nc1ccc(S(=O)(=O)Nc2ncccn2)cc1)C1=CCOC1=O (stereo not given in full)", "tested_on": "TK-10", "test_value": 2.77}
{"molecule": "C=C1CC[C@@H]2[C@](C)(COC(C)=O)[C@H](OC(C)=O)CC[C@@]2(C)[C@H]1CC(Nc1ccc(S(=O)(=O)Nc2nccs2)cc1)C1=CCOC1=O (stereo not given in full)", "tested_on": "TK-10", "test_value": 9.45}
{"molecule": "C=C1CC[C@@H]2[C@](C)(COC(C)=O)[C@H](OC(C)=O)CC[C@@]2(C)[C@H]1CC(Nc1ccc(S(=O)(=O)Nc2ccc(Cl)nn2)cc1)C1=CCOC1=O (stereo not given in full)", "tested_on": "TK-10", "test_value": 2.13}
{"molecule": "C=C1CC[C@@H]2[C@](C)(COC(C)=O)[C@H](OC(C)=O)CC[C@@]2(C)[C@H]1CC(Nc1ccc(S(=O)(=O)Nc2cc(C)on2)cc1)C1=CCOC1=O (stereo not given in full)", "tested_on": "TK-10", "test_value": 3.04}
{"molecule": "C=C1CC[C@@H]2[C@](C)(COC(C)=O)[C@H](OC(C)=O)CC[C@@]2(C)[C@H]1CC(Nc1ccc(S(=O)(=O)Nc2nccc(C)n2)cc1)C1=CCOC1=O (stereo not given in full)", "tested_on": "TK-10", "test_value": 4.94}

###

- Test system: NCI-H460
- test_summary: Growth inhibition of human NCI-H460 cells incubated for 48 hrs by sulforhodamine B assay
- Format: functional
- condition_summary: NCI-H460, 48 h

{"molecule": "C=C1CC[C@@H]2[C@](C)(COC(C)=O)[C@H](OC(C)=O)CC[C@@]2(C)[C@H]1CC(Nc1ccc(S(=O)(=O)Nc2ccc(Cl)nn2)cc1)C1=CCOC1=O (stereo not given in full)", "GI50 [µM]": 2.03}
{"molecule": "C=C1CC[C@@H]2[C@](C)(COC(C)=O)[C@H](OC(C)=O)CC[C@@]2(C)[C@H]1CC(Nc1ccc(S(=O)(=O)Nc2nccs2)cc1)C1=CCOC1=O (stereo not given in full)", "GI50 [µM]": 10.7}
{"molecule": "C=C1CC[C@@H]2[C@](C)(COC(C)=O)[C@H](OC(C)=O)CC[C@@]2(C)[C@H]1CC(Nc1ccc(S(=O)(=O)Nc2nccc(C)n2)cc1)C1=CCOC1=O (stereo not given in full)", "GI50 [µM]": 4.88}
{"molecule": "C=C1CC[C@@H]2[C@](C)(COC(C)=O)[C@H](OC(C)=O)CC[C@@]2(C)[C@H]1CC(Nc1ccc(S(=O)(=O)Nc2cc(C)on2)cc1)C1=CCOC1=O (stereo not given in full)", "GI50 [µM]": 2.35}
{"molecule": "C=C1CC[C@@H]2[C@](C)(COC(C)=O)[C@H](OC(C)=O)CC[C@@]2(C)[C@H]1CC(Nc1ccc(S(=O)(=O)Nc2ncccn2)cc1)C1=CCOC1=O (stereo not given in full)", "GI50 [µM]": 1.98}

###

- Test system: NCI-H322M
- test_summary: Growth inhibition of human NCI-H322M cells incubated for 48 hrs by sulforhodamine B assay
- Type: functional

{"compound": "C=C1CC[C@@H]2[C@](C)(COC(C)=O)[C@H](OC(C)=O)CC[C@@]2(C)[C@H]1CC(Nc1ccc(S(=O)(=O)Nc2nccs2)cc1)C1=CCOC1=O (stereo not given in full)", "unit_name": "µM", "TGI": 24.9}
{"compound": "C=C1CC[C@@H]2[C@](C)(COC(C)=O)[C@H](OC(C)=O)CC[C@@]2(C)[C@H]1CC(Nc1ccc(S(=O)(=O)Nc2nccc(C)n2)cc1)C1=CCOC1=O (stereo not given in full)", "unit_name": "µM", "TGI": 23.9}
{"compound": "C=C1CC[C@@H]2[C@](C)(COC(C)=O)[C@H](OC(C)=O)CC[C@@]2(C)[C@H]1CC(Nc1ccc(S(=O)(=O)Nc2cc(C)on2)cc1)C1=CCOC1=O (stereo not given in full)", "unit_name": "µM", "TGI": 16.1}
{"compound": "C=C1CC[C@@H]2[C@](C)(COC(C)=O)[C@H](OC(C)=O)CC[C@@]2(C)[C@H]1CC(Nc1ccc(S(=O)(=O)Nc2ncccn2)cc1)C1=CCOC1=O (stereo not given in full)", "unit_name": "µM", "TGI": 11.1}
{"compound": "C=C1CC[C@@H]2[C@](C)(COC(C)=O)[C@H](OC(C)=O)CC[C@@]2(C)[C@H]1CC(Nc1ccc(S(=O)(=O)Nc2ccc(Cl)nn2)cc1)C1=CCOC1=O (stereo not given in full)", "unit_name": "µM", "TGI": 11.6}

###

The following molecules are listed with their measured growth at 10 µM values.
- Tested on: HCT-116
- test_summary: Anticancer activity against human HCT116 cells assessed as cell growth at 10 uM after 48 hrs by sulforhodamine B assay relative to control
- Type: functional
- condition_summary: HCT-116, 48 h, read-out: Activity

{"molecule": "C=C1CC[C@@H]2[C@](C)(COC(C)=O)[C@H](OC(C)=O)CC[C@@]2(C)[C@H]1CC(Nc1ccc(S(=O)(=O)Nc2ncccn2)cc1)C1=CCOC1=O (some centres undefined)", "unit_name": "%", "growth at 10 µM": -55}
{"molecule": "C=C1CC[C@@H]2[C@](C)(COC(C)=O)[C@H](OC(C)=O)CC[C@@]2(C)[C@H]1CC(Nc1ccc(S(=O)(=O)Nc2ccc(Cl)nn2)cc1)C1=CCOC1=O (some centres undefined)", "unit_name": "%", "growth at 10 µM": -34.1}
{"molecule": "C=C1CC[C@@H]2[C@](C)(COC(C)=O)[C@H](OC(C)=O)CC[C@@]2(C)[C@H]1CC(Nc1ccc(S(=O)(=O)Nc2nccs2)cc1)C1=CCOC1=O (some centres undefined)", "unit_name": "%", "growth at 10 µM": -30.4}
{"molecule": "C=C1CC[C@@H]2[C@](C)(COC(C)=O)[C@H](OC(C)=O)CC[C@@]2(C)[C@H]1CC(Nc1ccc(S(=O)(=O)Nc2nccc(C)n2)cc1)C1=CCOC1=O (some centres undefined)", "unit_name": "%", "growth at 10 µM": -32.2}

###

The following molecules are listed with their measured TGI values.
- Test system: HOP-92
- test_summary: Growth inhibition of human HOP92 cells incubated for 48 hrs by sulforhodamine B assay
- Type: functional
- condition_summary: HOP-92, 48 h

{"molecule": "C=C1CC[C@@H]2[C@](C)(COC(C)=O)[C@H](OC(C)=O)CC[C@@]2(C)[C@H]1CC(Nc1ccc(S(=O)(=O)Nc2cc(C)on2)cc1)C1=CCOC1=O (stereo partly drawn)", "unit_name": "µM", "TGI": 8}
{"molecule": "C=C1CC[C@@H]2[C@](C)(COC(C)=O)[C@H](OC(C)=O)CC[C@@]2(C)[C@H]1CC(Nc1ccc(S(=O)(=O)Nc2nccs2)cc1)C1=CCOC1=O (stereo partly drawn)", "unit_name": "µM", "TGI": 25.3}
{"molecule": "C=C1CC[C@@H]2[C@](C)(COC(C)=O)[C@H](OC(C)=O)CC[C@@]2(C)[C@H]1CC(Nc1ccc(S(=O)(=O)Nc2nccc(C)n2)cc1)C1=CCOC1=O (stereo partly drawn)", "unit_name": "µM", "TGI": 18.9}
